The measured values listed here are drawn from paper PMC8000041.

Please provide measured Urinary excretion F4 for the entries that follow.
Experiment: Urinary excretion of flavanone-derived metabolites after single intake of lemon or orange extract (UPLC-ESI-QTOF-MS)
Format: in vivo, human
Conditions: lemon extract, urine fraction 10-24 h, mean ± SD
Give bare numbers, in µg/mg creatinine.

Below, 7 compounds whose answers are already recorded.
- compound: "O=C1CC(c2ccc(O)cc2)Oc2cc(OC3OC(C(=O)O)C(O)C(O)C3O)cc(O)c21 (centres unmarked) [M3, Naringenin 7-O-glucuronide]"
  value_units: "µg/mg creatinine"
  result_number: 0.3
- compound: "COc1ccc(C2CC(=O)c3c(O)cc(O)cc3O2)cc1OC1OC(C(=O)O)C(O)C(O)C1O (centres unmarked) [M8, Hesperetin 3′-O-glucuronide]"
  value_units: "µg/mg creatinine"
  result_number: 2.2
- compound: "O=C1CC(c2ccc(O)c(O)c2)Oc2cc(OC3OC(C(=O)O)C(O)C(O)C3O)cc(O)c21 (centres unmarked) [M1, Eriodictyol glucuronide-1]"
  value_units: "µg/mg creatinine"
  result_number: 0.7
- compound: "COc1ccc(C2CC(=O)c3c(O)cc(O)cc3O2)cc1OS(=O)(=O)O (centres unmarked) [M14, Hesperetin 3′-O-sulfate]"
  value_units: "µg/mg creatinine"
  result_number: 0.7
- compound: "O=C1CC(c2ccc(OC3OC(C(=O)O)C(O)C(O)C3O)cc2)Oc2cc(O)cc(O)c21 (centres unmarked) [M5, Naringenin 4′-O-glucuronide]"
  value_units: "µg/mg creatinine"
  result_number: 0.4
- compound: "O=C1CC(c2ccc(OC3OC(C(=O)O)C(O)C(O)C3O)c(O)c2)Oc2cc(O)cc(O)c21 (centres unmarked) [M4, Eriodictyol glucuronide-3]"
  value_units: "µg/mg creatinine"
  result_number: 4.3
- compound: "O=C1CC(c2ccc(O)c(OC3OC(C(=O)O)C(O)C(O)C3O)c2)Oc2cc(O)cc(O)c21 (centres unmarked) [M2, Eriodictyol glucuronide-2]"
  value_units: "µg/mg creatinine"
  result_number: 4.2

Now for the compound whose Urinary excretion F4 we want.
For this compound ( COc1ccc(C2CC(=O)c3c(O)cc(OC4OC(C(=O)O)C(O)C(O)C4O)cc3O2)cc1O (centres unmarked) [M7, Hesperetin 7-O-glucuronide] ), measured Urinary excretion F4 is 0.6

* * *

Please provide measured Occurrence Urine OE (number of volunteers in whom the metabolite was detected) for the entries that follow.
Test: Urinary excretion of flavanone-derived metabolites after single intake of lemon or orange extract (UPLC-ESI-QTOF-MS)
Assay type: in vivo, human
Conditions: urine, after consuming orange extract, n = 16 volunteers
Give bare numbers.

- compound: "COc1cc([C@@H]2CC(=O)c3c(O)cc(O)cc3O2)ccc1O"
  result_number: 1
- compound: "O=C1CC(c2ccc(O)c(O)c2)Oc2cc(OC3OC(C(=O)O)C(O)C(O)C3O)cc(O)c21 (stereo not drawn) [M1, Eriodictyol glucuronide-1]"
  result_number: 5
- compound: "O=C1CC(c2ccc(O)c(OC3OC(C(=O)O)C(O)C(O)C3O)c2)Oc2cc(O)cc(O)c21 (stereo not drawn) [M2, Eriodictyol glucuronide-2]"
  result_number: 10
- compound: "O=C1CC(c2ccc(OC3OC(C(=O)O)C(O)C(O)C3O)cc2)Oc2cc(O)cc(O)c21 (stereo not drawn) [M5, Naringenin 4′-O-glucuronide]"
  result_number: 16
- compound: "COc1ccc(C2CC(=O)c3c(O)cc(OC4OC(C(=O)O)C(O)C(O)C4O)cc3O2)cc1O (stereo not drawn) [M7, Hesperetin 7-O-glucuronide]"
  result_number: 16

Quick one: give me Occurrence Urine OE (number of volunteers in whom the metabolite was detected) for each item below, same order please.
1. O=C1C[C@@H](c2ccc(O)c(O)c2)Oc2cc(O)cc(O)c21
2. COc1ccc([C@@H]2CC(=O)c3c(O)cc(O)cc3O2)cc1O

Result:
4
8

Quick one: give me Occurrence Urine OE (number of volunteers in whom the metabolite was detected) for each item below, same order please.
1. O=C1C[C@@H](c2ccc(O)cc2)Oc2cc(O)cc(O)c21
2. O=C1CC(c2ccc(OC3OC(C(=O)O)C(O)C(O)C3O)c(O)c2)Oc2cc(O)cc(O)c21 (stereo not drawn) [M4, Eriodictyol glucuronide-3]
3. COc1ccc(C2CC(=O)c3c(O)cc(O)cc3O2)cc1OS(=O)(=O)O (stereo not drawn) [M14, Hesperetin 3′-O-sulfate]
4. O=C1CC(c2ccc(O)cc2)Oc2cc(OC3OC(C(=O)O)C(O)C(O)C3O)cc(O)c21 (stereo not drawn) [M3, Naringenin 7-O-glucuronide]
5. COc1ccc(C2CC(=O)c3c(O)cc(O)cc3O2)cc1OC1OC(C(=O)O)C(O)C(O)C1O (stereo not drawn) [M8, Hesperetin 3′-O-glucuronide]

Result:
1: 5; 2: 11; 3: 16; 4: 16; 5: 16
